Quick list: mortality at 5.5 µg/disc per entry.
system: Reticulitermes flavipes; assay: Antitermitic activity against Reticulitermes flavipes assessed as mortality at 5.5 ug/disk after 10 days by no-choice paper disk assay; format: functional; details: 240 h
Dear colleague, please return just the value in %, with no unit written.

Would you please look over these solved cases?
>>> df
                                 smiles_str  endpoint_value
0  C/C1=C\[C@H]2[C@@H]([C@@H](O)C/C(C)=C/CC1)C2(C)C              71
1  COc1ccc(C(=O)O[C@H]2C/C(C)=C/CC/C(C)=C/[C@H]3[C@@H]2C3(C)C)cc1               0
2  CC(C)(O)[C@@H]1CC[C@](C)([C@H]2[C@@H](O)C[C@@]3(C)C4=C(CC[C@]23C)[C@@]2(C)CCC(=O)C(C)(C)[C@@H]2CC4)O1               0
3  CC(=O)O[C@H]1C(=O)O[C@@H]2C[C@H]3C(C)=CC(=O)[C@@H](O)[C@]3(C)[C@H]3[C@]4(O)OC[C@]32[C@@H]1[C@@H](C)[C@H]4O              24

As a next step, examine the compound that follows.
Lab note: COC1=C[C@]2(C)CCC(C(C)C)=CC2=C(C)C1=O gave mortality at 5.5 µg/disc of 66
